target: Fuc(a1-4)GlcNAc; experiment: glycan array binding signal (z-score within array); higher = stronger binding; settings: glycan notation: IUPAC condensed, linker removed
The full list was thinned out, with the strongest signals kept by preference.
Below, each entry is listed alongside its reported glycan array binding signal (z-score).
Observation Type: glycan array binding signal (z-score)

Binder: LSECtin (Homo sapiens), Q6UXB4 (protein) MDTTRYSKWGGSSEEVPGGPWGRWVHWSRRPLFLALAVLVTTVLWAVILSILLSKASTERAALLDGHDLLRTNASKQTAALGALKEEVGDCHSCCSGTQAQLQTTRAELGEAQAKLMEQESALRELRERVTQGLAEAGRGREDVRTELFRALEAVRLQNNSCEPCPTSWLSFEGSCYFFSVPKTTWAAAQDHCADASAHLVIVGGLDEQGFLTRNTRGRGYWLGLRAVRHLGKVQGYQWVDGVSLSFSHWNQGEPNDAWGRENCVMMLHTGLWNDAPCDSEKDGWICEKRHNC
Observation Type: glycan array binding signal (z-score)
Quantitative Result: -0.206
//
Binder: CTLY 1 (Homo sapiens), Q6ZS10 (protein) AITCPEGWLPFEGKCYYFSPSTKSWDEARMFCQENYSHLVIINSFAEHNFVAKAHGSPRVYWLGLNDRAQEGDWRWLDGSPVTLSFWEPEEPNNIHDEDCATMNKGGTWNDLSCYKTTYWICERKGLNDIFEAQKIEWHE
Observation Type: glycan array binding signal (z-score)
Quantitative Result: -0.24
//
Binder: MSMEG3662-2a (Mycobacterium smegmatis), A0QYH7_MYCS2 (protein) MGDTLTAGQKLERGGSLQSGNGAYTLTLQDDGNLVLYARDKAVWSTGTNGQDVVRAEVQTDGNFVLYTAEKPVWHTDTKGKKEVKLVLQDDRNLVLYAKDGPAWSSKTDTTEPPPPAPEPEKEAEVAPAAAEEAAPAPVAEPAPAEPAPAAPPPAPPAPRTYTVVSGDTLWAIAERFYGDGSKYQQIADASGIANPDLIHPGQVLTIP
Observation Type: glycan array binding signal (z-score)
Quantitative Result: 11.1
